Here, each record is paired with measured %Inh data.
- System: DYRK1A
- CONDITION DESCRIPTION: concentration: 1 μM, replicates: in singlicate; n = 1;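 further: KINOMEscan kinase panel screen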
Please give a number only; it is taken to be in %.

| MOLECULE | UNIT OF MEASUREMENT | %Inh |
| --- | --- | --- |
| CS(=O)(=O)c1ccc(-c2c(-c3ncn[nH]3)sc(N3CCOCC3)c2C#N)cc1 | % | 1 |

Prompt line: Tell me measured %Inh for CCCc1ccc(S(=O)(=O)NC2CCN(c3ccnc(Nc4ccc(F)cc4)n3)C2)cc1 (stereo not drawn) [GSK1379715] please.
Response line: 23

Prompt line: Tell me measured %Inh for C[C@@H]1CCCCN1c1cc(-c2ccc3c(N)n[nH]c3c2)nc(N)n1 [GSK2258759] please.
Response line: 0

Prompt line: Tell me measured %Inh for Nc1nc(-c2nccs2)c(-c2ccnc3ccccc23)s1 [GW693542] please.
Response line: 20

Prompt line: Tell me measured %Inh for Cl.Oc1ccc(-c2nc(-c3ccccc3)[nH]c2-c2ccncc2)cc1 [SB-428218] please.
Response line: 17

Prompt line: Tell me measured %Inh for O=S(=O)(c1ccc(-c2ccnc3[nH]ccc23)cc1)N1CCCC1 [GSK846226] please.
Response line: 21

Prompt line: Tell me measured %Inh for Cc1c(Cn2ccn3c(=O)cc(N4CCOCC4)nc23)cccc1C(F)(F)F [GSK2289044] please.
Response line: 10

Prompt line: Tell me measured %Inh for COc1ccc2nc(-c3cccc(C)n3)nc(Nc3ccncc3)c2c1 [GSK204919] please.
Response line: 24

Prompt line: Tell me measured %Inh for Cc1ccc(C(=O)Nc2ccc(Nc3ccnc4cc(-c5ccccn5)ccc34)cc2O)cc1.Cl [GW440146] please.
Response line: 18

----------
Here, each record is paired with measured %Inh data.
- System: MYLK4
- CONDITION DESCRIPTION: concentration: 1 μM, replicates: in singlicate; n = 1
Please give a number only; it is taken to be in %.

Prompt line: Tell me measured %Inh for COc1cc2nccc(Nc3ccc(NC(=O)c4ccc(C)cc4)c(O)c3)c2cc1OC.Cl [GW440132] please.
Response line: 0

----------
- Tested on: LATS1
- CONDITION DESCRIPTION: concentration: 1 μM, replicates: in singlicate; n = 1
Here, each record is paired with measured %Inh data.
Please give a number only; it is taken to be in %.

| MOLECULE | %Inh [%] |
| --- | --- |
| COC(=O)c1c(-c2ccccc2)c2cc(OC)ccc2c(=O)n1Cc1ccccc1 | 31 |
| O=C(Nc1n[nH]c2cc(-c3cccc(F)c3F)ccc12)C1CC1 [SB-733894] | 0 |
| Cc1cc(NCC(c2ccccc2)c2ccccc2)nc(NCc2ccc(C(F)(F)F)cc2)n1 [GW497681] | 0 |
| Cc1ccc(NC(=O)Nc2cccc(Cl)c2)cc1-c1ccc(C(=O)Nc2ccncc2)cc1 [GSK1398468] | 0 |
| CCCc1ccc(S(=O)(=O)NC2CCN(c3ccnc(Nc4ccc(F)cc4)n3)C2)cc1 (stereo not drawn) [GSK1379715] | 0 |
| COc1cccc(NC(=O)NC2CCN(c3ccnc(Nc4ccc(F)cc4)n3)C2)c1 (stereo not drawn) [GSK1379721] | 0 |
| Cl.NC(=O)c1cccc(Nc2nccc(Nc3ccc(Oc4cccc(Cl)c4)c(Cl)c3)n2)c1 [GW659008] | 0 |
| CN(C)CCN(C)C(=O)c1cc(-c2ccncc2)c(-c2ccc(Cl)c(O)c2)o1.Cl.Cl [SB-710397] | 3 |

With those in mind, consider the next molecule.
Prompt line: Tell me measured %Inh for CC(C)(C)c1ccc(C(=O)Nc2cn3cc(Cl)ccc3n2)cc1 please.
Response line: 10

Data provenance is paper PMC5540273.
